Recorded values, source patent US20260207798A1.

Target: T1, human Granzyme B (human, UniProt P10144 21-247)
T1 construct: Captured on a Series S Streptavidin chip for SPR; also called hGranzyme B; GzmB
T1 sequence (P10144 21-247 limits assumed): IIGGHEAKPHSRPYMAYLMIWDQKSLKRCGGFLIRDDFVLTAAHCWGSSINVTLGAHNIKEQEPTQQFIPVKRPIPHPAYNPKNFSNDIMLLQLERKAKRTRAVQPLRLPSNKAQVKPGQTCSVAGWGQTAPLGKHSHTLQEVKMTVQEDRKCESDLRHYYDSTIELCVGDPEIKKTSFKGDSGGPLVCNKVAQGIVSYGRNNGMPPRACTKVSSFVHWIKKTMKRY
Test: SPR, Biacore 8k+, hGranzyme B captured on SA chip, single cycle kinetics, 1:1 model; Compound 62a, observed m/z 914.7
Bridge positions count the residues as written; N and C are the ends. Square brackets hold non-standard residues; d marks the D form. Pro(cis-4-F) = O=C(O)[C@@H]1C[C@H](F)CN1
ENDPOINT_NAME: pKd
Numbers only, as −log10 of the molar value.

Input: # input binder: {CH2CO}-FNFEDQS[Pro(cis-4-F)]DTWQPCG-NH2 (thioether N-14) [Compound 62a] ; wanted: its pKd
Output: 8.17
